Test system: BaF3 wild-type cells
Test: Cellular screening, BaF3 wild-type cells, Alamar Blue
Type: cell-based
Settings: Mus musculus, 40 hr, read-out: BAF3wt IC50_nM
Outcome measure: IC50

smi=C=CC(=O)Nc1ccc(Sc2nc(Nc3cccc(OC(F)(F)F)c3)ncc2C)cc1 endpoint_result="> 20 µM"
smi=O=C(/C=C\Cl)Nc1ccc(Sc2ccnc(Nc3ccc(N4CCOCC4)cc3)n2)cc1 endpoint_result="< 1 µM"
smi=C=CC(=O)Nc1ccc(Sc2ccnc(Nc3ccc(S(=O)(=O)NCCC(C)C)cc3)n2)cc1 endpoint_result="< 20 µM"
smi=C=CC(=O)Nc1ccc(Sc2ccnc(Nc3cc(C)cc(C)c3)n2)cc1 endpoint_result="< 20 µM"
smi=c1cc(Sc2ccc(Cn3cncn3)cc2)nc(Nc2ccc(N3CCOCC3)cc2)n1 endpoint_result="< 20 µM"
smi=Cc1cnc(Nc2ccc(N3CCOCC3)cc2)nc1Sc1ccc(NC(=O)CO)cc1 endpoint_result="< 20 µM"
smi=CNC(=O)CCC(=O)Nc1ccc(Sc2nc(Nc3ccc(N4CCOCC4)cc3)ncc2C)cc1 endpoint_result="> 20 µM"
smi=Cc1cnc(Nc2ccc(N3CCOCC3)cc2)nc1Sc1ccc(C#N)cc1 endpoint_result="> 20 µM"
smi=C=CC(=O)Nc1ccc(Sc2nc(Nc3ccc(N4CCN(C)CC4)cc3)ncc2C)cc1 endpoint_result="< 5 µM"
smi=Cc1cnc(Nc2ccc(N3CCOCC3)cc2)nc1Sc1ccc(NC(=O)CSCC(=O)O)cc1 endpoint_result="> 20 µM"
smi=COc1ccc(Nc2ncc(C)c(Sc3ccc(N)cc3)n2)cc1OC endpoint_result="< 1 µM"
smi=C=CC(=O)Nc1ccc(Sc2ccnc(Nc3ccc(S(=O)(=O)NCc4ccccc4)cc3)n2)cc1 endpoint_result="< 20 µM"
smi=C=CC(=O)Nc1ccc(Sc2nc(Nc3cccc(N4CCN(C)CC4)c3)ncc2C)cc1 endpoint_result="< 5 µM"
smi=CNC(=O)/C=C\C(=O)Nc1ccc(Sc2nc(Nc3ccc(N4CCOCC4)cc3)ncc2C)cc1 endpoint_result="< 20 µM"
smi=Cc1cnc(Nc2ccc(N3CCOCC3)cc2)nc1Sc1ccc(C=O)cc1 endpoint_result="< 5 µM"
smi=C=CC(=O)Nc1ccc(Sc2ccnc(Nc3cccc([N+](=O)[O-])c3)n2)cc1 endpoint_result="> 20 µM"
smi=C=CC(=O)Nc1ccc(Sc2nc(Nc3cccc(CO)c3)ncc2C)cc1 endpoint_result="< 20 µM"
